Target of assay: T1, 4H3817-bN
T1 chain: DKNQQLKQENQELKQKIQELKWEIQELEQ
Method: two-hybrid library CCNG1;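 also: natural log of median RNA to DNA barcode read ratio; higher means stronger binding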
Attribute measured: interaction score

In [3]: df
Out[3]:
                                     binder  reported_measurement
0  DENQQLEQKIQELKQEIQELEWENQELKQ [4H1348-bN]                -0.958

(I) DENQQLEQENQELKQEIQELEWKIQELKQ [4H1222-bN]
(II) DENQQLKQKNQELKQEIQELEWEIQELEQ [4H1985-bN]
(III) DENQQLKQENQELEQKIQELKWKIQELKQ [4H1710-bN]
Arrange the 3 binders from largest to smallest interaction score. Answer with the labels in sequence, matching the requested order.
I, III, II
(I: 2.15, III: 1.23, II: -0.872)
